Assay: Cytotoxicity, microplate Alamar Blue assay
Type: cell-based
Conditions: human

- cpd.smiles: "CC1(C)S[C@@H]2[C@H](NC(=O)[C@H](N)c3ccccc3)C(=O)N2[C@H]1C(=O)O"
  IC50 at 72 h: "> 128 µg/mL"
